src = the supplement of paper PMC10567573

- assayProcedure: protein stability index of a GFP-peptide fusion (GPS, HEK-293T) (PSI 1-6); higher = more stable;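 also: 24-mer peptide tiles fused after GFP, lentivirally expressed, FACS-sorted into six equal bins by GFP/DsRed ratio, decoded by Illumina sequencing, PSI is the read-weighted mean bin number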
- conditionDescription: treatment: DMSO; c terminus: a fixed tail appended
propertyLabel: protein stability index

- AWFLPMPQKSLFFHHIPSTCQRVN [SLC19A2]: 2.29
- FRVNCYPGIDIREDLAQKLNLEED [HESX1]: 3.52
- NWGNGKRPNLETYYERVLKRKTFN [GDAP1]: 2.57
- NQAGYFMLPTVITDIKDESCCMTE [ALDH8A1]: 3.5
- GTPMGTFAPLWEVFRVSSDKLALC [FCHO1]: 2.23
- LGFAYAKEDKIMLDDRKNEEDGGA [MIA2]: 4.96
- KMIMDTAGNDPYCFVEFHEHRHAA [TIA1]: 3.28
- LLTTSPVFPHYIEKPLGRVGVFLD [TRIM43]: 2.08
- QIHLDVDNDRTTPSDLDSTGNSLN [DLC1]: 5.19
- TSFPGRGSIPEFFHIMKRKFTNKE [AASDHPPT]: 3.18
- QEGAASKVLGRLRALSDTTEELTV [SLC2A12]: 4.46
- DSDDPSVTLELSQLSMLPHLADLV [VDR]: 3.41
- QREEVEERMWAAIQSWDINSRRNI [ZER1]: 3.75
- SSQLAQMQCLISNVEAQLSEIRCD [KRT36]: 3
- SNLIRHQRIHAAERLCMGVDCTEI [ZNF263]: 3.17
- PDPLNICVFILLLVFIVVKCFTSE [RTP4]: 2.97
- VAPATWSAGVPPSAPLQGAVPPTS [SNAP91]: 4.38
- KIQNHGHRVLQRLEQRRQQASERE [FCHSD1]: 4.28
- VVPSYIPLVKKHCDDSFTPQEKLW [CPOX]: 2.93
- MSSENCFVAENSSLHPESGQENDA [CD69]: 5.71
- AFPKMALQAKQDGKKDVSHSSPVD [LCOR]: 5.26
